Source: PubChem BioAssay

Target: Epidermal growth factor receptor (Homo sapiens)
Assay: EGFR binders on small-molecule microarrays, primary screen, biochemical, small-molecule microarray, 635 nm fluorescence (AID 1104);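 note: score merges 667 nm emission intensity with spot signal to noise over triplicate slides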
Conditions: EGFR binding, higher = more signal
Catalogue of composite z-score readings, one per entry.

Here's what some known entries look like.
line-notation: C[C@H]1CC[C@H]2C(=O)N[C@H](Cc3ccccc3)C(=O)N2[C@@H]1c1ccccc1
composite z-score: 0.353
//
line-notation: CC(CCN1CCCCc2nc(C)c(C)cc21)=NO[C@@H](C)c1cc(-c2c(C)cc(C)cc2C)no1
composite z-score: -1.51
//
line-notation: C[C@H]1C=CCC(=O)OC[C@H](C)C(=O)N2CCC[C@H]2C(=O)OC1
composite z-score: 1.73

Note: attention shifts to another entry.
-- ask Form field: composite z-score recorded for `COC(=O)[C@@H]1CC[C@H](C)[C@@H](c2ccc(C)cc2)N1C(=O)c1ccc(C=NOC[C@@H](O)[C@H]2O[C@@H]3OC(C)(C)O[C@@H]3[C@H]2O)cc1` with Epidermal growth factor receptor (Homo sapiens) (enter value)
-- reply 0.54

====

Catalogue of z-score readings, one per entry.
Target: Homeobox protein Hox-A13 (Mus musculus) (UniProt Q62424)
Sequence (Q62424 whole entry, looked up): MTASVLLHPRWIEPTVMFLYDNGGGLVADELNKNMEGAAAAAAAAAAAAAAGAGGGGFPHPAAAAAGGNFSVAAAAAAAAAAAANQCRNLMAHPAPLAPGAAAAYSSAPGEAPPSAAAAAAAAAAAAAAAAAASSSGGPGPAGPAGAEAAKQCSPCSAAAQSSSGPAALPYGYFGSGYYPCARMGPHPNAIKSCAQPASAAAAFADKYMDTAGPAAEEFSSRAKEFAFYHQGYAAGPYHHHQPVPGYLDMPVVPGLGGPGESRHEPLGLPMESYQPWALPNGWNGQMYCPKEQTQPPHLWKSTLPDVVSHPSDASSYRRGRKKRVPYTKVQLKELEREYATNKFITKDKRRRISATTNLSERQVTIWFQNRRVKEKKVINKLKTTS
Assay: inhibitors of HoxA13-DNA binding, primary screen, biochemical, fluorescence polarization, labeled oligonucleotide (AID 1185)
Settings: 15 min, higher = more signal, called active from +8 up or from −8 down
Active and inactive are the calls of the source.

Here's what some known entries look like.
line-notation: COc1ccc(COC(=O)NN=C2C[C@@H](O)[C@@H](O)[C@@H]3[C@@H]4C(=O)N([C@@H](C)c5ccccc5)C(=O)[C@@H]4CC[C@H]23)cc1
z-score: -3.73 (inactive)
--
line-notation: C=CC[C@@H]1C=C[C@H](ON=C(C)CCN2CCCCc3nc(C)c(C)cc32)[C@@H](CO)O1
z-score: -4.55 (inactive)

-- ask Consider the compound `COC(=O)CC=C[C@@H](C)[C@@H](C=NOC[C@@H](O)COCc1ccco1)OC` and give its measured z-score.
-- reply -0.341 (inactive)

====

Test system: XIP peptide (Xip251-270) binding
Assay: small-molecule binders of XIP peptide, primary screen, biochemical, small-molecule microarray, fluorescence 635/667 nm, 0.1 µg/mL protein (AID 1182)
Settings: fluorescent protein binding, 635 nm, higher = more signal, called active from +8 up or from −8 down
Calls of active or inactive are those of the source.
test-readout: composite z-score

Here's what some known entries look like.
molecule: COC(=O)[C@H](C)NC(=O)CC=C[C@@H](C)[C@@H]1C=C[C@H](O)[C@@H](CO)O1
test-readout: composite z-score
result: 0.672 (inactive)

molecule: COC(=O)CC=C[C@@H](C)[C@@H](C=NOC[C@@H](O)COCc1ccco1)NS(=O)(=O)c1ccc(C)cc1
test-readout: composite z-score
result: 0.133 (inactive)

molecule: CC(C)CON=C1C[C@@H](O)[C@@H](O)[C@@H]2[C@@H]3C(=O)N([C@@H](C)c4ccccc4)C(=O)[C@@H]3CC[C@@H]12
test-readout: composite z-score
result: 0.0068 (inactive)

Note: attention shifts to another entry.
-- ask Consider the molecule CCOC(=O)[C@H](Cc1ccccc1)NC(=O)CCC1CC(OC(=O)NCc2ccc3c(c2)OCO3)CC2(CCCC(COC(=O)NCCOC)O2)O1 (some centres undefined) and give its measured composite z-score.
-- reply 0.247 (inactive)
